src = patent US5567716A

# assay comment: Physical chemical characteristics: solubility in water and organic solvents
# reported conditions: water
attribute measured: solubility

INSERT INTO results (molecule, attribute_measured, value_measured) VALUES
  ('NCCO.O=C(O)/C=C/CCCCCCCCC(=O)O [ethanolamine traumatate, ethanolamine trans-traumatate]', 'solubility', '> 10000 µg/mL');

---

# assay comment: Physical chemical characteristics: solubility in water and organic solvents
# reported conditions: ethanol, organic solvent or mixture
attribute measured: solubility

INSERT INTO measurements (compound, value_measured) VALUES
  ('NCCO.O=C(O)/C=C/CCCCCCCCC(=O)O [ethanolamine traumatate, ethanolamine trans-traumatate]', '> 10000 µg/mL');
